Test system: adhesion of U937 cells to human umbilical vein endothelial cells (HUVEC)
Assay: Cell adhesion inhibitory effect: adhesion of U937 cells to IL-1β- or TNFα-stimulated HUVEC
Type: cell-based
Conditions: 0.75 h, TNFα-stimulated HUVEC, 45 minutes adhesion at room temperature, read-out: Cell Adhesion (IC50), TNFα Stimulation
Give pIC50 for every item shown.
Numbers only, as −log10 of the molar value.

# count of solved cases: 3
{"compound": "COc1ccc(/C=C/CCCN2CCN(CCC/C=C/c3ccc(OC)cc3)CC2)cc1 [compound 4]", "subject-of-test": "adhesion of U937 cells to human umbilical vein endothelial cells (HUVEC)", "pIC50": 5.03}
{"compound": "COc1cc(/C=C\\CCCN2CCCN(CCC/C=C\\c3cc(OC)c(OC)c(OC)c3)CC2)cc(OC)c1OC [compound 1]", "subject-of-test": "adhesion of U937 cells to human umbilical vein endothelial cells (HUVEC)", "pIC50": 5.10}
{"compound": "COc1ccccc1/C=C/CN1CCN(C/C=C/c2ccccc2OC)CC1 [compound 3]", "subject-of-test": "adhesion of U937 cells to human umbilical vein endothelial cells (HUVEC)", "pIC50": 4.89}

Could you now consider this next compound?
Req: State its pIC50: COc1cc(/C=C/CCCN2CCCN(CCC/C=C/c3cc(OC)c(OC)c(OC)c3)CC2)cc(OC)c1OC [compound 2]
Resp: 5.02
